- Protocol text: AUC (0 to t) in ICR mouse at 5 mg/kg, iv
- Type: ADME, organism-based
- Test conditions: in vivo
Experimental endpoint: AUC(0-t) (µg·h/mL)

{"Molecule": "COC(=O)N1CC[C@H]2CC[C@@H](C(=O)N[C@@H](CCC(N)=O)C(=O)N[C@@H](Cc3ccc(F)c(F)c3)C(=O)N3CCC(CCC#Cc4cccc5c4CN(C4CCC(=O)NC4=O)C5=O)CC3)N2C(=O)[C@@H](NC(=O)c2cc3cc(C(F)(F)P(=O)(O)O)ccc3s2)C1 (some centres not stated)", "Readout units": "µg·h/mL", "Quantitative readout": 859}
{"Molecule": "CC(=O)N1CC[C@H]2CC[C@@H](C(=O)N[C@@H](CCC(N)=O)C(=O)N[C@@H](Cc3ccc(F)c(F)c3)C(=O)N3CCC(CCC#Cc4cccc5c4CN(C4CCC(=O)NC4=O)C5=O)CC3)N2C(=O)[C@@H](NC(=O)c2cc3cc(C(F)(F)P(=O)(O)O)ccc3s2)C1 (some centres not stated)", "Readout units": "µg·h/mL", "Quantitative readout": 739}
